Recorded viability, T/C values for a group of molecules are listed next.
system: 883617-216-R-J1-PDC complex spheroids, growth, % test/control; assay: Anticancer human tumor 883617-216-R-J1-PDC patient-derived bladder carcinoma cell line growth inhibition [AhR]; conditions: second compound 3.16 µM; first compound 0.03 µM; active compounds read low
Express the result in % but write the number alone.

Example entries and their recorded answers appear below.
O=C(C=Cn1cnc(-c2cc(C(F)(F)F)cc(C(F)(F)F)c2)n1)NNc1cnccn1 + CC(CO)NC(=O)c1cc(-c2ccc(Cl)cc2)nn(-c2cnn(C)c2)c1=O : 61.9
CCN(c1cc(-c2ccc(CN3CCOCC3)cc2)cc(C(=O)NCc2c(C)cc(C)[nH]c2=O)c1C)C1CCOCC1 + Cc1ccccc1N=Nc1ccc(NC(=O)c2ccnn2C)c(C)c1 : 84.5
CCN(c1cc(-c2ccc(CN3CCOCC3)cc2)cc(C(=O)NCc2c(C)cc(C)[nH]c2=O)c1C)C1CCOCC1 + CC(CO)NC(=O)c1cc(-c2ccc(Cl)cc2)nn(-c2cnn(C)c2)c1=O : 85
Nc1ncn(C2CC(O)C(CO)S2)c(=O)n1 (configuration not stated) + CC(CO)NC(=O)c1cc(-c2ccc(Cl)cc2)nn(-c2cnn(C)c2)c1=O : 76
Nc1ncn(C2CC(O)C(CO)S2)c(=O)n1 (configuration not stated) + Cc1cncc(-c2nc(NCCc3c[nH]c4ccccc34)c3ncn(C(C)C)c3n2)c1 : 88.2
CCc1c2c(nc3ccc(O)cc13)-c1cc3c(c(=O)n1C2)COC(=O)[C@]3(O)CC + Cc1cncc(-c2nc(NCCc3c[nH]c4ccccc34)c3ncn(C(C)C)c3n2)c1 : 88.9
Nc1ncn(C2CC(O)C(CO)S2)c(=O)n1 (configuration not stated) + Cc1ccccc1N=Nc1ccc(NC(=O)c2ccnn2C)c(C)c1 : 73.3
O=C(C=Cn1cnc(-c2cc(C(F)(F)F)cc(C(F)(F)F)c2)n1)NNc1cnccn1 + Cc1ccccc1N=Nc1ccc(NC(=O)c2ccnn2C)c(C)c1 : 63.6
CCN(c1cc(-c2ccc(CN3CCOCC3)cc2)cc(C(=O)NCc2c(C)cc(C)[nH]c2=O)c1C)C1CCOCC1 + Cc1cncc(-c2nc(NCCc3c[nH]c4ccccc34)c3ncn(C(C)C)c3n2)c1 : 102
CCc1c2c(nc3ccc(O)cc13)-c1cc3c(c(=O)n1C2)COC(=O)[C@]3(O)CC + Cc1ccccc1N=Nc1ccc(NC(=O)c2ccnn2C)c(C)c1 : 64.7

So, CCc1c2c(nc3ccc(O)cc13)-c1cc3c(c(=O)n1C2)COC(=O)[C@]3(O)CC + CC(CO)NC(=O)c1cc(-c2ccc(Cl)cc2)nn(-c2cnn(C)c2)c1=O ? Its viability, T/C was 77.9

So, O=C(C=Cn1cnc(-c2cc(C(F)(F)F)cc(C(F)(F)F)c2)n1)NNc1cnccn1 + Cc1cncc(-c2nc(NCCc3c[nH]c4ccccc34)c3ncn(C(C)C)c3n2)c1 ? Its viability, T/C was 88.2

====

test system: 883617-216-R-J1-PDC complex spheroids, growth, % test/control; assay: Anticancer human tumor 883617-216-R-J1-PDC cell line growth inhibition [AhR]; details: second compound 10 µM; first compound 3.16 µM; active compounds read low;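 note: exposure lasted 7 days after dosing on day 3 of spheroid growth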
// NB: equality with 60% counts as F; only viability, T/C strictly below is T

COc1cc(C2c3cc4c(cc3C(OC3OC5COC(C)OC5C(O)C3O)C3COC(=O)C23)OCO4)cc(OC)c1O (stereo not given) + CC(CO)NC(=O)c1cc(-c2ccc(Cl)cc2)nn(-c2cnn(C)c2)c1=O : T
O=C(c1cc(Cc2n[nH]c(=O)c3ccccc23)ccc1F)N1CCN(C(=O)C2CC2)CC1 + Cc1ccccc1N=Nc1ccc(NC(=O)c2ccnn2C)c(C)c1 : F
COc1cc(C2c3cc4c(cc3C(OC3OC5COC(C)OC5C(O)C3O)C3COC(=O)C23)OCO4)cc(OC)c1O (stereo not given) + Cc1ccccc1N=Nc1ccc(NC(=O)c2ccnn2C)c(C)c1 : F
CC1(C)CCC(CN2CCN(c3ccc(C(=O)NS(=O)(=O)c4ccc(NCC5CCOCC5)c([N+](=O)[O-])c4)c(Oc4cnc5[nH]ccc5c4)c3)CC2)=C(c2ccc(Cl)cc2)C1 + CC(CO)NC(=O)c1cc(-c2ccc(Cl)cc2)nn(-c2cnn(C)c2)c1=O : F

Then there is this compound:
Query :: Determine if COc1cccc2c1C(=O)c1c(O)c3c(c(O)c1C2=O)CC(O)(C(=O)CO)CC3OC1CC(N)C(O)C(C)O1 (stereo not given) + Cc1cncc(-c2nc(NCCc3c[nH]c4ccccc34)c3ncn(C(C)C)c3n2)c1 shows viability, T/C strictly lower than 60%.
Result :: T

====

tested on: 883617-216-R-J1-PDC complex spheroids, growth, % test/control; test: Anticancer human tumor 883617-216-R-J1-PDC cell line growth inhibition [AhR]; details: second compound 0.316 µM; first compound 1 µM; active = viability on the fitted dose curve at most 10% of control; inactive = the rest;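 note: exposure lasted 7 days after dosing on day 3 of spheroid growth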
Log the outcome using a class from active, inactive

Solved entries (count: 2):
CC1COCCN1c1cc(-c2ccnn2C)c2ccnc(-c3ccn[nH]3)c2n1 (configuration not stated) + Cc1cncc(-c2nc(NCCc3c[nH]c4ccccc34)c3ncn(C(C)C)c3n2)c1 : inactive
COc1cc(Nc2ncc3c(n2)-c2ccc(Cl)cc2C(c2c(F)cccc2OC)=NC3)ccc1C(=O)O + Cc1cncc(-c2nc(NCCc3c[nH]c4ccccc34)c3ncn(C(C)C)c3n2)c1 : inactive

Query :: Test call for this molecule, please: COc1cccc2c1C(=O)c1c(O)c3c(c(O)c1C2=O)CC(O)(C(=O)CO)CC3OC1CC(N)C(O)C(C)O1 (configuration not stated) + Cc1cncc(-c2nc(NCCc3c[nH]c4ccccc34)c3ncn(C(C)C)c3n2)c1
Result :: inactive

Query :: Test call for this molecule, please: COc1ccc([C@@H](O)c2cc(-c3ncnc4cc(N5CCOCC5)ccc34)c(F)cc2Cl)nn1 + Cc1ccccc1N=Nc1ccc(NC(=O)c2ccnn2C)c(C)c1
Result :: inactive

Query :: Test call for this molecule, please: O=C(c1cc(Cc2n[nH]c(=O)c3ccccc23)ccc1F)N1CCN(C(=O)C2CC2)CC1 + Cc1ccccc1N=Nc1ccc(NC(=O)c2ccnn2C)c(C)c1
Result :: inactive

Query :: Test call for this molecule, please: Nc1ccccc1NC(=O)c1ccc(CNC(=O)OCc2cccnc2)cc1 + CC(CO)NC(=O)c1cc(-c2ccc(Cl)cc2)nn(-c2cnn(C)c2)c1=O
Result :: inactive

Query :: Test call for this molecule, please: NS(=O)(=O)OCC1CC(n2ccc3c(NC4CCc5ccccc54)ncnc32)CC1O (configuration not stated) + Cc1ccccc1N=Nc1ccc(NC(=O)c2ccnn2C)c(C)c1
Result :: inactive

Query :: Test call for this molecule, please: COc1ccc([C@@H](O)c2cc(-c3ncnc4cc(N5CCOCC5)ccc34)c(F)cc2Cl)nn1 + Cc1cncc(-c2nc(NCCc3c[nH]c4ccccc34)c3ncn(C(C)C)c3n2)c1
Result :: inactive

Query :: Test call for this molecule, please: O=C(C=Cc1cccc(S(=O)(=O)Nc2ccccc2)c1)NO + Cc1ccccc1N=Nc1ccc(NC(=O)c2ccnn2C)c(C)c1
Result :: inactive

Query :: Test call for this molecule, please: CC1(C)CCC(CN2CCN(c3ccc(C(=O)NS(=O)(=O)c4ccc(NCC5CCOCC5)c([N+](=O)[O-])c4)c(Oc4cnc5[nH]ccc5c4)c3)CC2)=C(c2ccc(Cl)cc2)C1 + Cc1cncc(-c2nc(NCCc3c[nH]c4ccccc34)c3ncn(C(C)C)c3n2)c1
Result :: inactive

Query :: Test call for this molecule, please: CC1COCCN1c1cc(C2(S(C)(=N)=O)CC2)nc(-c2ccnc3[nH]ccc23)n1 (configuration not stated) + Cc1ccccc1N=Nc1ccc(NC(=O)c2ccnn2C)c(C)c1
Result :: inactive

Query :: Test call for this molecule, please: CC1COCCN1c1cc(C2(S(C)(=N)=O)CC2)nc(-c2ccnc3[nH]ccc23)n1 (configuration not stated) + Cc1cncc(-c2nc(NCCc3c[nH]c4ccccc34)c3ncn(C(C)C)c3n2)c1
Result :: inactive

Query :: Test call for this molecule, please: COc1cc(C2c3cc4c(cc3C(OC3OC5COC(C)OC5C(O)C3O)C3COC(=O)C23)OCO4)cc(OC)c1O (configuration not stated) + Cc1ccccc1N=Nc1ccc(NC(=O)c2ccnn2C)c(C)c1
Result :: inactive

Query :: Test call for this molecule, please: COc1cc(C2c3cc4c(cc3C(OC3OC5COC(C)OC5C(O)C3O)C3COC(=O)C23)OCO4)cc(OC)c1O (configuration not stated) + Cc1cncc(-c2nc(NCCc3c[nH]c4ccccc34)c3ncn(C(C)C)c3n2)c1
Result :: inactive

====

tested on: 883617-216-R-J1-PDC complex spheroids, growth, % test/control; assay: Anticancer human tumor 883617-216-R-J1-PDC cell line growth inhibition [AhR]; conditions: second compound 10 µM; first compound 1 µM; active compounds read low;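 note: exposure lasted 7 days after dosing on day 3 of spheroid growth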
// NB: equality with 50% counts as Not satisfied; only viability, T/C strictly below is Satisfied

Solved entries (count: 5):
Nc1ccccc1NC(=O)c1ccc(CNC(=O)OCc2cccnc2)cc1 + CC(CO)NC(=O)c1cc(-c2ccc(Cl)cc2)nn(-c2cnn(C)c2)c1=O : Not satisfied
CC1COCCN1c1cc(-c2ccnn2C)c2ccnc(-c3ccn[nH]3)c2n1 (configuration not stated) + Cc1cncc(-c2nc(NCCc3c[nH]c4ccccc34)c3ncn(C(C)C)c3n2)c1 : Satisfied
CC1(C)CCC(CN2CCN(c3ccc(C(=O)NS(=O)(=O)c4ccc(NCC5CCOCC5)c([N+](=O)[O-])c4)c(Oc4cnc5[nH]ccc5c4)c3)CC2)=C(c2ccc(Cl)cc2)C1 + Cc1cncc(-c2nc(NCCc3c[nH]c4ccccc34)c3ncn(C(C)C)c3n2)c1 : Not satisfied
COc1cc(Nc2ncc3c(n2)-c2ccc(Cl)cc2C(c2c(F)cccc2OC)=NC3)ccc1C(=O)O + CC(CO)NC(=O)c1cc(-c2ccc(Cl)cc2)nn(-c2cnn(C)c2)c1=O : Not satisfied
COc1cc(C2c3cc4c(cc3C(OC3OC5COC(C)OC5C(O)C3O)C3COC(=O)C23)OCO4)cc(OC)c1O (configuration not stated) + Cc1ccccc1N=Nc1ccc(NC(=O)c2ccnn2C)c(C)c1 : Not satisfied

Query :: Determine if COc1cc(C2c3cc4c(cc3C(OC3OC5COC(C)OC5C(O)C3O)C3COC(=O)C23)OCO4)cc(OC)c1O (configuration not stated) + CC(CO)NC(=O)c1cc(-c2ccc(Cl)cc2)nn(-c2cnn(C)c2)c1=O shows viability, T/C strictly lower than 50%.
Result :: Not satisfied

Query :: Determine if COc1cc(C2c3cc4c(cc3C(OC3OC5COC(C)OC5C(O)C3O)C3COC(=O)C23)OCO4)cc(OC)c1O (configuration not stated) + Cc1cncc(-c2nc(NCCc3c[nH]c4ccccc34)c3ncn(C(C)C)c3n2)c1 shows viability, T/C strictly lower than 50%.
Result :: Satisfied
